Measured tissue uptake at 2 h, listed per entry for reference.
experiment: in vivo; conditions: female, athymic NMRI-Foxn1^nu/Foxn1^nu, mouse, iv, 10 MBq, total radioactivity, liver uptake
*1 amine or outer side, *2 acyl side, *3 side chain or, on linkers, in order; H or OH if unused. Where a SMILES comes first, the peptide text is derived from it. [ ]: non-standard residue; d: D form. The star is where a group is joined. DOTA = O=C(O)CN1CCN(CC(=O)O)CCN(CC(=O)*)CCN(CC(=O)O)CC1; NH(CH2)9CO = O=C(CCCCCCCCCN[*:1])[*:2]; Hyp = O=C(O)[C@@H]1C[C@@H](O)CN1; Tic = O=C(O)[C@@H]1Cc2ccccc2CN1; Cha = N[C@@H](CC1CCCCC1)C(=O)O; Cit = NC(=O)NCCC[C@H](N)C(=O)O; Octanoyl = CCCCCCCC(=O)*; Ahx = NCCCCCC(=O)O
Give your result in %ID/g as a bare value.

Check out these entries, answers already filled in.
C[C@@H](NC(=O)[C@H](Cc1ccccc1)NC(=O)[C@H](CCCNC(N)=O)NC(=O)CNC(=O)[C@@H]1C[C@@H](O)CN1C(=O)[C@H](CC1CCCCC1)NC(=O)[C@H](Cc1ccc(O)cc1)NC(=O)CCCCCCCCCNC(=O)CN1CCN(CC(=O)O)CCN(CC(=O)O)CCN(CC(=O)O)CC1)C(=O)N1Cc2ccccc2C[C@H]1C(=O)N[C@@H](CO)C(=O)O [[^68Ga]Ga-DOTA-ADX-CG34, metal not drawn] ({DOTA}-[NH(CH2)9CO]Y[Cha][Hyp]G[Cit]F[dA][Tic]S-OH) :: 12.5
CSCC[C@H](NC(=O)CNC(=O)[C@@H]1CCCN1C(=O)[C@H](CC1CCCCC1)NC(=O)[C@H](Cc1ccc(O)cc1)NC(=O)CCCCCNC(=O)CN1CCN(CC(=O)O)CCN(CC(=O)O)CCN(CC(=O)O)CC1)C(=O)N[C@@H](Cc1ccc(O)cc1)C(=O)N[C@@H](C)C(=O)N[C@@H](Cc1ccccc1)C(=O)N[C@H](Cc1ccccc1)C(=O)O [[^68Ga]Ga-DOTA-AHX-CG36, metal not drawn] ({DOTA-Ahx}-Y[Cha]PGMYAF[dF]-OH) :: 4.9
C[C@@H](NC(=O)[C@H](Cc1ccccc1)NC(=O)[C@H](CCCNC(N)=O)NC(=O)CNC(=O)[C@@H]1C[C@@H](O)CN1C(=O)[C@H](CC1CCCCC1)NC(=O)[C@H](Cc1ccc(O)cc1)NC(=O)CCCCCNC(=O)CN1CCN(CC(=O)O)CCN(CC(=O)O)CCN(CC(=O)O)CC1)C(=O)N1Cc2ccccc2C[C@H]1C(=O)N[C@@H](CO)C(=O)O [[^68Ga]Ga-DOTA-AHX-CG34, metal not drawn] ({DOTA-Ahx}-Y[Cha][Hyp]G[Cit]F[dA][Tic]S-OH) :: 2.4

Now let's try a different one.
Request: Identify tissue uptake at 2 h associated with the compound CCCCCCCC(=O)NCCCC[C@H](NC(=O)CN1CCN(CC(=O)O)CCN(CC(=O)O)CCN(CC(=O)O)CC1)C(=O)N[C@@H](Cc1ccc(O)cc1)C(=O)N[C@@H](CC1CCCCC1)C(=O)N1C[C@H](O)C[C@H]1C(=O)NCC(=O)N[C@@H](CCCNC(N)=O)C(=O)N[C@@H](Cc1ccccc1)C(=O)N[C@H](C)C(=O)N1Cc2ccccc2C[C@H]1C(=O)N[C@@H](CO)C(=O)O [[^68Ga]Ga-DOTA-KCap-CG34, metal not drawn] ({DOTA}-K(Octanoyl)Y[Cha][Hyp]G[Cit]F[dA][Tic]S-OH)
Result: 1.8
